Overview of reported Kd across a group of binders:
test_system: T1, CTLA4 antigen (NCBI Gene ID: 1493) obtained by TEV protease cleavage of CTLA4-mFc (Homo sapiens (Human), UniProt P16410 37-161)
T1 construct: also called the antigen CTLA4
T1 sequence: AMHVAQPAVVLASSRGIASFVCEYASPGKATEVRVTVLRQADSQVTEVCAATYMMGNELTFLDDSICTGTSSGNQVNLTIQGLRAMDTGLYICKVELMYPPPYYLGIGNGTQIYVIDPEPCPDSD
assay_name: BLI (Fortebio), antibody on AR2G sensor, CTLA4 in solution
A number alone suffices; assume nM.

Reference set (2 entries):
[Q] Request the reported Kd associated with monoclonal antibody 8D2 (antibody, V domains shown, Murine antibody purified from hybridoma supernatant; also called mAb 8D2; antibody secreted by the CTLA4-8D2 hybridoma cell line LT001) VH: EVKLDETGGGLVQPGRPMKLSCVASGFTFSDNWMNWVRQSPEKGLEWLAQIRNKPYNYETYYSDSVKGRFTISRDDSKSSVYLQMNNLRGEDMGIYYCTAQFAYWGQGTLVTVSA VL: DIQMTQSPASLSASVGETVTITCGTSENIYGGLNWYQRKQGKSPQLLIFGATNLADGMSSRFSGSGSGRQYSLKISSLHPDDVATYYCQNVLRSPFTFGSGTKLEI
[A] 0.166

[Q] # iterate: humanized antibody 8D2H1L1 (antibody, V domains shown) VH: EVQLVESGGGLVQPGGSMRLSCAASGFTFSDNWMNWVRQAPGKGLEWLAQIRNKPYNYETYYSDSVKGRFTISRDDSKNSVYLQMNSLKTEDTGVYYCTAQFAYWGQGTLVTVSS VL: DIQMTQSPSSLSASVGDRVTITCRTSENIYGGLNWYQRKQGKSPKLLIYGATNLASGMSSRFSGSGSGTDYTLKISSLHPDDVATYYCQNVLRSPFTFGSGTKLEIK
[A] 0.608

Next:
[Q] Request the reported Kd associated with humanized antibody 8D2H3L3 (antibody, V domains shown) VH: EVQLVESGGGLVQPGGSLRLSCAASGFTFSDNWMNWVRQAPGKGLEWVAQIRNKPYNYETEYAASVKGRFTISRDDSKNSAYLQMNSLKTEDTAVYYCTAQFAYWGQGTLVTVSS VL: DIQMTQSPSSLSASVGDRVTITCRASENIYGGLNWYQQKPGKAPKLLIYGATSLASGVPSRFSGSGSGTDYTLTISSLQPEDFATYYCQNVLRSPFTFGSGTKLEIK
[A] 1.05
